# procedure summary: Metabolic stability in rat liver microsomes assessed as parent compound remaining incubated for 30 mins
# Type: ADME, Microsome
# experimental parameters: read-out: Stabilty
property label: remaining at 0.5 h (%)

record smiles | result units | assay value
CNc1nc(Nc2ccc(-n3cnc(C)n3)c(OC)c2)nc2c1CC[C@@H]2c1ccc(F)cc1 | % | 89
CNc1nc(Nc2ccc(-n3cnc(C)n3)c(OC)c2)nc2c1CC[C@H]2c1ccc(F)cc1 | % | 89

====

# system name: Gamma-secretase
# procedure summary: Modulation of gamma secretase (unknown origin) assessed as inhibition of amyloid beta (1 to 42 residues) production
property label: IC50 (nM)

Here is how some molecules turned out for IC50.
molecule | IC50 [nM]
CNc1nc(Nc2ccc(-n3cnc(C)n3)c(OC)c2)nc2c1C(=O)C[C@H]2c1ccc(F)cc1 | 14
CNc1nc(Nc2ccc(-n3cnc(C)n3)c(OC)c2)nc2c1C(C)(O)CC2c1ccc(F)cc1 (racemic) | 60
CNc1nc(Nc2ccc(-n3cnc(C)n3)c(OC)c2)nc2c1CC[C@@]2(O)c1ccc(F)cc1 | 2300
CNc1nc(Nc2ccc(-n3cnc(C)n3)c(OC)c2)nc2c1[C@H](O)C[C@H]2c1ccc(F)cc1 | 17
CNc1nc(Nc2ccc(-n3cnc(C)n3)c(OC)c2)nc2c1/C(=N/O)C[C@H]2c1ccc(F)cc1 | 5

[I] CNc1nc(Nc2ccc(-n3cnc(C)n3)c(OC)c2)nc2c1/C(=N/O)CC2c1ccc(F)cc1 (racemic)
[II] CNc1nc(Nc2ccc(-n3cnc(C)n3)c(OC)c2)nc2c1CC[C@]2(O)c1ccc(F)cc1
Request: Input pair: I , II . Output: entry with lower IC50. Choose, then provide that item's label.
Response: I
